This listing pairs compounds with measured pIC50.
test system: 616215-338-R-J1-PDC tumor spheroids, viability; assay: Anticancer human tumor 616215-338-R-J1-PDC patient-derived colon adenocarcinoma cell line growth inhibition [GQUAD]; details: curve of first compound; second compound 1 µM; spheroids with HUVEC and MSC
pIC50: −log10 of the molar value.

{"columns": ["compound", "system-under-test", "pIC50"],
 "data": [
  ["COc1ncnc(C2CC2)c1-c1ncc2cnn(Cc3ccc(-c4nc(C(F)(F)F)cn4C(C)C)cc3)c2n1 + CN(C)c1ccc(Nc2c3ccc(NC(=O)CCN4CCCC4)cc3nc3cc(NC(=O)CCN4CCCC4)ccc23)cc1", "616215-338-R-J1-PDC tumor spheroids, viability", "< 5.00"],
  ["O=C(c1cc(Cc2n[nH]c(=O)c3ccccc23)ccc1F)N1CCN(C(=O)C2CC2)CC1 + Cc1[nH]c2ccc(F)cc2c1-c1nc2c3cccnc3c3ncccc3c2[nH]1", "616215-338-R-J1-PDC tumor spheroids, viability", "< 5.00"],
  ["CC1COCCN1c1cc(-c2ccnn2C)c2ccnc(-c3ccn[nH]3)c2n1 (stereo not drawn) + Cc1cnc(CNC(=O)c2c(=O)c3ccc(N4CCCN(C)CC4)nc3n3c2sc2ccccc23)cn1", "616215-338-R-J1-PDC tumor spheroids, viability", "> 7.50"]
]}

----------
system: 616215-338-R-J1-PDC tumor spheroids, viability; assay: Anticancer human tumor 616215-338-R-J1-PDC cell line growth inhibition [GQUAD]; conditions: second compound 1 µM; first compound 0.0316 µM; stronger effect = lower value; spheroids with HUVEC and MSC;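 also: spheroids exposed to agents for 7 days before readout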;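 as to viability, T/C: percent viability relative to DMSO vehicle control wells taken as 100%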
This listing pairs compounds with measured viability, T/C.

{"columns": ["compound", "viability, T/C (%)"],
 "data": [
  ["CC1COCCN1c1cc(-c2ccnn2C)c2ccnc(-c3ccn[nH]3)c2n1 (centres undefined) + Cc1[nH]c2ccc(F)cc2c1-c1nc2c3cccnc3c3ncccc3c2[nH]1", 91.5],
  ["CC(C)n1c(=O)n(C)c2cnc3cc(F)c(-c4ccc(OCCCN5CCCCC5)nc4)cc3c21 + Cc1cnc(CNC(=O)c2c(=O)c3ccc(N4CCCN(C)CC4)nc3n3c2sc2ccccc23)cn1", 28.3],
  ["O=C(NO)c1cnc(N2CCN(S(=O)(=O)c3ccc4ccccc4c3)CC2)nc1 + Cc1[nH]c2ccc(F)cc2c1-c1nc2c3cccnc3c3ncccc3c2[nH]1", 103],
  ["CC[C@@]1(O)C(=O)OCc2c1cc1n(c2=O)Cc2cc3c(CN(C)C)c(O)ccc3nc2-1 + Cc1[nH]c2ccc(F)cc2c1-c1nc2c3cccnc3c3ncccc3c2[nH]1", 97.7]
]}

----------
system: 616215-338-R-J1-PDC tumor spheroids, viability; test: Anticancer human tumor 616215-338-R-J1-PDC cell line growth inhibition [GQUAD]; conditions: curve of first compound; second compound 1 µM; spheroids with HUVEC and MSC;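 also: spheroids exposed to agents for 7 days before readout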

{"columns": ["molecule", "system-under-test", "IC50"],
 "data": [
  ["C=CCn1c(=O)c2cnc(Nc3ccc(N4CCN(C)CC4)cc3)nc2n1-c1cccc(C(C)(C)O)n1 + Cc1cnc(CNC(=O)c2c(=O)c3ccc(N4CCCN(C)CC4)nc3n3c2sc2ccccc23)cn1", "616215-338-R-J1-PDC tumor spheroids, viability", "< 31.6 nM"],
  ["Cc1cccc(N(C)C(=O)C2C(O)CCN2c2nc(C)cc(C(F)(F)F)c2C#N)c1 (stereo not given) + Cc1cnc(CNC(=O)c2c(=O)c3ccc(N4CCCN(C)CC4)nc3n3c2sc2ccccc23)cn1", "616215-338-R-J1-PDC tumor spheroids, viability", "< 31.6 nM"],
  ["Cc1cccc(N(C)C(=O)C2C(O)CCN2c2nc(C)cc(C(F)(F)F)c2C#N)c1 (stereo not given) + Cc1[nH]c2ccc(F)cc2c1-c1nc2c3cccnc3c3ncccc3c2[nH]1", "616215-338-R-J1-PDC tumor spheroids, viability", "> 10000 nM"],
  ["CC(C)n1c(=O)n(C)c2cnc3cc(F)c(-c4ccc(OCCCN5CCCCC5)nc4)cc3c21 + Cc1cnc(CNC(=O)c2c(=O)c3ccc(N4CCCN(C)CC4)nc3n3c2sc2ccccc23)cn1", "616215-338-R-J1-PDC tumor spheroids, viability", "< 31.6 nM"],
  ["Cn1ncnc1[C@H]1c2n[nH]c(=O)c3cc(F)cc(c23)N[C@@H]1c1ccc(F)cc1 + CN(C)c1ccc(Nc2c3ccc(NC(=O)CCN4CCCC4)cc3nc3cc(NC(=O)CCN4CCCC4)ccc23)cc1", "616215-338-R-J1-PDC tumor spheroids, viability", "> 316 nM"],
  ["CC1COCCN1c1cc(C2(S(C)(=N)=O)CC2)nc(-c2ccnc3[nH]ccc23)n1 (stereo not given) + Cc1cnc(CNC(=O)c2c(=O)c3ccc(N4CCCN(C)CC4)nc3n3c2sc2ccccc23)cn1", "616215-338-R-J1-PDC tumor spheroids, viability", "< 31.6 nM"],
  ["CC[C@@]1(O)C(=O)OCc2c1cc1n(c2=O)Cc2cc3c(CN(C)C)c(O)ccc3nc2-1 + Cc1[nH]c2ccc(F)cc2c1-c1nc2c3cccnc3c3ncccc3c2[nH]1", "616215-338-R-J1-PDC tumor spheroids, viability", "> 316 nM"],
  ["CC(=O)O[C@H]1C(=O)[C@@]2(C)[C@H]([C@H](OC(=O)c3ccccc3)[C@]3(O)C[C@H](OC(=O)[C@H](O)[C@@H](NC(=O)c4ccccc4)c4ccccc4)C(C)=C1C3(C)C)[C@]1(OC(C)=O)CO[C@@H]1C[C@@H]2O + Cc1[nH]c2ccc(F)cc2c1-c1nc2c3cccnc3c3ncccc3c2[nH]1", "616215-338-R-J1-PDC tumor spheroids, viability", "< 31.6 nM"],
  ["C=CC(=O)N1CCN(c2nc(=O)n(-c3c(C)ccnc3C(C)C)c3nc(-c4c(O)cccc4F)c(F)cc23)C(C)C1 (stereo not given) + CN(C)c1ccc(Nc2c3ccc(NC(=O)CCN4CCCC4)cc3nc3cc(NC(=O)CCN4CCCC4)ccc23)cc1", "616215-338-R-J1-PDC tumor spheroids, viability", "> 10000 nM"],
  ["Cn1ncnc1[C@H]1c2n[nH]c(=O)c3cc(F)cc(c23)N[C@@H]1c1ccc(F)cc1 + Cc1[nH]c2ccc(F)cc2c1-c1nc2c3cccnc3c3ncccc3c2[nH]1", "616215-338-R-J1-PDC tumor spheroids, viability", "> 316 nM"]
]}

Source listed as PubChem BioAssay AID2060493.
